- System: SR
- TEST PROTOCOL: NCI tumour cell line growth inhibition, 48 h
Calls of active or inactive are those of the source. Cut-off read from the data, not from the text of the source: active = GI50 up to about 1.1 µM and inactive = higher.
// allowed return values: active, inactive

Below are worked cases with known answers.
C[C@@H]1CCC2[C@@H](C)[C@H](O[C@H]3O[C@@H]4O[C@@]5(C)CCC6[C@H](C)CCC([C@H]3C)[C@]64OO5)O[C@@H]3O[C@@]4(C)CCC1[C@@]23OO4 (some centres not stated)
active
O=C1C2Nc3ccccc3SC2C(=O)N1c1ccccc1C(F)(F)F (configuration not stated)
inactive
COc1ccc(N2C(=O)C3c4[nH]c5ccccc5c4C4CCC(C(C)C)CC4C3C2=O)cc1 (configuration not stated)
inactive
Cc1ccc2c(c1)C(c1cccc3ccccc13)OC2=O (configuration not stated)
inactive
O=C(Nc1ccc(Cl)c(C(F)(F)F)c1)C(=O)C(C(=O)/C=C/c1ccccc1)C1OC(=O)c2ccccc21 (configuration not stated)
inactive

Request: # lookup: test call for CC1(C)O[C@H]2OC(CO)C(N=[N+]=[N-])[C@H]2O1 (some centres not stated)
Response: inactive

Request: # lookup: test call for CC(C)c1ccc(C(c2c(O)oc3ccccc3c2=O)c2c(O)oc3ccccc3c2=O)cc1
Response: inactive

Request: # lookup: test call for CCC1=NC(C(F)(F)F)(C(F)(F)F)N=C(/N=C(/N)N(C)C(C(C)C)P(=O)(OC(C)C)OC(C)C)O1 (configuration not stated)
Response: inactive

Request: # lookup: test call for CC(C)[Si](OC1=C(C(=O)N(C)c2ccccc2Cl)CCCC1)(C(C)C)C(C)C
Response: inactive

Request: # lookup: test call for FC(F)(F)c1nc(-c2ccccc2)oc1Sc1oc(-c2ccccc2)nc1C(F)(F)F
Response: inactive

Request: # lookup: test call for Cc1cccc2c1c(=O)c1c(O)c3c(cc1n2C)OC(C)(C)C=C3
Response: inactive

Request: # lookup: test call for CCCC(=O)Nc1cn(COC)c(C(=O)N2C[C@H]3C[C@@]34C2=CC(=O)c2[nH]cc(C)c24)n1
Response: inactive

###

- Tested on: HOP-92
- TEST PROTOCOL: NCI tumour cell line growth inhibition, 48 h
The source made the active and inactive calls. Cut-off read from the data, not from the text of the source: active = GI50 up to about 1.1 µM and inactive = higher.
TEST READOUT: GI50

Please review the entries below; each comes with its answer.
O=[N+]([O-])c1ccc(C(O)(C#CCN2CCCC2)c2ccccc2)cc1 (centres undefined)
10.2 µM (inactive)
N#Cc1c(Nc2nc3ccccc3s2)c2ccccc2n2c1nc1ccccc12
> 100 µM (inactive)
CCc1cccc(CC)c1NC(=O)C(C#N)C1=C(Cl)C(=O)c2ccccc2C1=O (centres undefined)
2.96 µM (inactive)

Would you mind giving GI50 for every compound in the list below?
1. Cc1cc(-c2no[n+]([O-])c2-c2cc(C)sc2S(C)(=O)=O)c(S(C)(=O)=O)s1
2. C/C(=N\NC(=S)Nc1ccc([N+](=O)[O-])cc1S(=O)(=O)O)c1ccccn1
3. CSc1nc(C)c(CCOC(C)=O)c(Cl)n1
4. CC(C)[Si](OC1=CCCCCC12C(=O)N(C)c1ccccc12)(C(C)C)C(C)C (centres undefined)
5. Cc1ccc(C)n1-c1ccccc1C1C=Cn2c(=O)oc3c(OC(C)C)c(OC(C)C)c(O)c1c32 (centres undefined)
6. COc1cc(Cc2cc(OC)c(OC)c(OC)c2)ccc1O
7. NC(=O)NC(=O)c1ccc(NC(=O)CBr)cc1

Response:
["> 100 µM (inactive)", "41.9 µM (inactive)", "> 100 µM (inactive)", "16.5 µM (inactive)", "24.9 µM (inactive)", "19.3 µM (inactive)", "1.6 µM (inactive)"]

Would you mind giving GI50 for every compound in the list below?
1. COc1ccc(-c2cc(=O)c3c(O)c(OC)c(OC)c(OC)c3o2)cc1OC
2. COC(=O)C1=C(c2ccc(Cl)cc2)C(O)NC(NN)=N1 (centres undefined)
3. Cn1c2ccccc2c(=NNc2cccc(C(=O)O)c2)c2ccccc21
4. O=c1[nH]nc(Cc2ccc(Cl)cc2)n1/N=C/c1c[nH]c2ccccc12

Response:
1: 3.73 µM (inactive); 2: > 100 µM (inactive); 3: 14.8 µM (inactive); 4: > 100 µM (inactive)
